The reported measurements were obtained from patent US5677318A.

Target: COX-2 (Homo sapiens)
Construct: incubation of human whole blood with LPS which induces COX-2; endogenous in cells
Sequence (P35354 18-604): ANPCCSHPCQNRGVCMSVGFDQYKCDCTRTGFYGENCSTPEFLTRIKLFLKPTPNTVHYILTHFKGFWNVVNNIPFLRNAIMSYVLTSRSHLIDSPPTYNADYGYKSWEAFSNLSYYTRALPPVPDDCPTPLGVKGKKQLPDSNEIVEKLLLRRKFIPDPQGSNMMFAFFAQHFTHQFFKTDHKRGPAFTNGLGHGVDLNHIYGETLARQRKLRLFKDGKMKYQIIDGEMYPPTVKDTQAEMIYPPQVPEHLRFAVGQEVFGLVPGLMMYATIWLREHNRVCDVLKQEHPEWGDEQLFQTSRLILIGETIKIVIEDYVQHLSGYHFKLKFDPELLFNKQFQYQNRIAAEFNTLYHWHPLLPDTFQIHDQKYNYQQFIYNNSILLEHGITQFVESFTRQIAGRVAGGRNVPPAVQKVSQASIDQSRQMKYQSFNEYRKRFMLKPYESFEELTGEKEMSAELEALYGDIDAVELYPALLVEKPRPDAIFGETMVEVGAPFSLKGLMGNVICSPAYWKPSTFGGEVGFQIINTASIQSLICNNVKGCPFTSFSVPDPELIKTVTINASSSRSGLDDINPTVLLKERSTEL
Assay: Human whole blood assay, COX-2 (LPS-induced PGE2 production)
Details: 24 hours at 37° C
Give IC50 for every item shown.
// units = nM; emit number, no label

Specify reported IC50 for the compound shown: CS(=O)(=O)c1ccc(-c2snnc2-c2cccc(F)c2)cc1
1300

Specify reported IC50 for the compound shown: CS(=O)(=O)c1ccc(-c2snnc2-c2ccc(F)cc2)cc1
2800
